# assay info: Stock solution stability (methanol), HPLC-DAD
# Type: physicochemical
# condition description: stock solution in methanol; 1000 ng/ml, 6 h at room temperature, n = 3; read-out: Stock solution stability (room temp.) Recovery%
metric name: recovery at 6 h, 1000 ng/ml (%)
Output spec: scalar in %, unitless text.

[Q] recovery at 6 h, 1000 ng/ml lookup needed for Cc1ccc(-c2ncc(Cl)cc2-c2ccc(S(C)(=O)=O)cc2)cn1 [ETC, etoricoxib] , thanks.
[A] 99.5

[Q] Likewise for O=C(O)CSc1nnc(Br)n1-c1ccc(C2CC2)c2ccccc12 [LES, lesinurad] ?
[A] 97.3

[Q] Likewise for COC(=O)[C@@H]1CC2=CC(=O)CC[C@]2(C)[C@@]23O[C@@H]2C[C@@]2(C)[C@@H](CC[C@@]24CCC(=O)O4)[C@H]13 [EPL, eplerenone] ?
[A] 101
